- targetOfAssay: T1, linear diubiquitin (Boston Biochem) (human, UniProt P0CG48 1-152)
- T1 construct: Bought product
- protocolNotes: phage IC50 competition ELISA with soluble linear diubiquitin
endpointLabel: pIC50
Hey, just a heads up that pIC50 is the negative log base 10 of the concentration in molar.

binder	reading
1F11/3F5 double mutant, Fab displayed on phage (Fab, V domains shown, S52K (L2) and S56Q (H2)) VH: EVQLVESGGGLVQPGGSLRLSCAASGFTFSNTYISWVRQAPGKGLEWVASITPSSGQTDYADSVKGRFTISADTSKNTAYLQMNSLRAEDTAVYYCARTWLLRWVMDYWGQGTLVTVSS VL: DIQMTQSPSSLSASVGDRVTITCRASQDVSTAVAWYQQKPGKAPKLLIYSAKFLYSGVPSRFSGSGSGTDFTLTISSLQPEDFATYYCQQSYTTPPTFGQGTKVEIK	8.30

Please examine the following record next.
Data request: Assign pIC50 to the following record: 2C11, Fab displayed on phage (Fab, name in Kabat numbering, V domains shown, Light chain mutant of 1E3 (CDR L3); Monovalent Fab on M13 phage) VH: EVQLVESGGGLVQPGGSLRLSCAASGFTFSNTYISWVRQAPGKGLEWVASITPSSGSTDYADSVKGRFTISADTSKNTAYLQMNSLRAEDTAVYYCARTWLLRWVMDYWGQGTLVTVSS VL: DIQMTQSPSSLSASVGDRVTITCRASQDVSTAVAWYQQKPGKAPKLLIYSASFLYSGVPSRFSGSGSGTDFTLTISSLQPEDFATYYCQQSYTQPPTFGQGTKVEIK
Data returned: 7.70
